Test system: LIMK2
Conditions: concentration: 1 μM, replicates: in singlicate; n = 1;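 further: KINOMEscan kinase panel screen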
Could you please mark condition met for values of %Inh below 10% and condition not met for values at or above it?

1. O=C(Nc1c(F)cccc1F)c1cc(C(=O)c2ccccc2F)c[nH]1
condition met
2. CN1CCN(Cc2ccc(NC(=O)Nc3ccc(N(C)c4ccnc(Nc5ccc(CS(C)(=O)=O)cc5)n4)cc3)cc2)CC1.Cl
condition not met
3. COc1cccc(-c2nc(-c3ccccc3)[nH]c2-c2ccncc2)c1
condition met
4. COc1cc(Nc2ccnc3cc(-c4ccncc4)ccc23)cc(OC)c1OC.Cl
condition met
5. COc1ccc(C)c(Nc2ccnc(Nc3ccc(-c4cnc[nH]4)cc3)n2)c1.Cl
condition not met
6. Cc1ccc(C)c(NC(=O)Nc2ccc(C)c(-c3ccc(C(=O)Nc4ccncc4)cc3)c2)c1
condition met
7. Cc1ccc(Nc2ccnc(Nc3ccc(C)c(F)c3)n2)cc1O.Cl
condition met
8. Cc1ccc(NC(=O)c2cccc(N3CCCCC3)c2)cc1-c1ccc(C(=O)NCC2CC2)cc1
condition not met

Record Cl.Cl.NCC(NC(=O)c1cc(-c2cccnc2)c(-c2ccnc3[nH]ccc23)s1)c1ccccc1 (stereo not drawn) : is its %Inh strictly below 10%?
condition met

hey, is %Inh for O=C1NC(=O)C(c2ccccc2Cl)=C1Nc1cccc(Cl)c1 lower than 10% or not?
condition not met

Does this compound meet the criterion %Inh < 10%? COc1ccc(NC(=O)c2ccoc2)cc1-c1ccc(C(=O)NCC2CC2)cc1
condition met

----------
Assignment: determine reported %Inh for the given compounds.
System: DAPK2
Settings: concentration: 1 μM, replicates: in singlicate; n = 1
One number for each entry, in %.

1. CN(C)CCNS(=O)(=O)c1ccc(-c2ccnc3[nH]ccc23)cc1 [GSK977620]
44

Quick request: %Inh for each listed item, please.
1. CS(=O)(=O)c1cccc(CNc2nc(Nc3ccc4c(c3)CCC(=O)N4)ncc2C(F)(F)F)c1
2. O=C(Nc1n[nH]c2nc(-c3ccccc3)ccc12)C1CC1 [SB-708999]
3. CCNC(=O)/C=C/c1n[nH]c2cc(Sc3ccccc3C(=O)NC)ccc12
4. COc1cccc(NC(=O)NCCNc2ccnc(Nc3ccc(F)cc3)n2)c1 [GSK1379879]

0
11
8
0

I have 3 compounds here; please give me %Inh for each one.
1. CCn1c(-c2nonc2N)nc2c(-c3ccccc3)ncc(OCCCN)c21.O=C(O)C(F)(F)F.O=C(O)C(F)(F)F [GSK260205]
2. CNc1nccc(-c2ccc3c(N)n[nH]c3c2)n1 [GSK2206003]
3. Cc1ccc(NC(=O)c2cccc(N3CCCCC3)c2)cc1-c1ccc(C(=O)NCC2CC2)cc1 [GSK1917008]

1. 2
2. 31
3. 0

Read the entry COc1cccc(-c2nc(-c3ccccc3)[nH]c2-c2ccncc2)c1 [SB-610250] and write its reported %Inh.
0

----------
System: NIM1
Construct: gene MGC42105
Details: concentration: 1 μM, replicates: in singlicate; n = 1
Exercise: for every item that follows, state its recorded %Inh.
Answers are plain numbers, in %.

The cases that follow already have their %Inh on record.
1) N#Cc1cnc2cc(-c3cnc(CNCCN4CCOCC4)s3)ccc2c1Nc1ccc(Oc2ccccc2)cc1 [GW664114]
12
2) CCn1cnc2c(NCc3ccccc3)ncnc21 [SKF-96418]
17
3) CN(C)c1ncnc2nc[nH]c12 [SKF-31736]
4

Value sought for every listed compound: %Inh.
1. CC(=O)Nc1cn2nc(Oc3cccc(NC(=O)c4cccc(C(F)(F)F)c4)c3)ccc2n1
2. CC(C)NCC(Cc1ccccc1)NC(=O)c1cc(Br)c(-c2ccnc3[nH]ccc23)s1.Cl.Cl (stereo not shown) [GSK1383281]
3. Cl.N#CCc1ccc(Nc2nccc(Nc3ccc(Oc4ccccc4)cc3)n2)cc1 [GW639905]
4. Cc1ccc(NC(=O)c2cccc(N3CCCCC3)c2)cc1-c1ccc(C(=O)NCC2CC2)cc1 [GSK1917008]
5. CN(c1ccc(NC(=O)N2CCN(CCCN3CCOCC3)CC2)cc1)c1ccnc(Nc2ccc(CS(C)(=O)=O)cc2)n1.Cl [GW830899]

0
0
14
15
0

Items follow; give %Inh for each.
1. Cc1cc(-c2ccnc(Nc3cccc(C#N)c3)n2)cc(C)c1O [GSK1440913]
2. CN1CCN(Cc2ccc(NC(=O)Nc3ccc(N(C)c4ccnc(Nc5ccc(CS(C)(=O)=O)cc5)n4)cc3)cc2)CC1.Cl [GW827654]
3. COC(=O)Nc1nc2cc(Oc3ccc(NC(=O)Nc4cccc(SC)c4)cc3)ccc2[nH]1.Cl [GW697999]

1. 12
2. 42
3. 32

----------
System: MEK1
Construct: gene MAP2K1
Settings: concentration: 1 μM, replicates: in singlicate; n = 1
experimental-endpoint: %Inh (%)
Numbers only, in %.

// known answers, use as guide
1. Cc1cc(-c2c(-c3ccc(F)cc3)ncn2CCCN2CCOCC2)nc(N)n1
21
2. Cl.O=C(Nc1ccc(Oc2ccc3[nH]c(NC(=O)c4ccco4)nc3c2)cc1)Nc1cc(C(F)(F)F)ccc1F
0
3. CCOc1nccc(-c2c(-c3ccc(F)cc3)ncn2C2CCNCC2)n1
28
4. Cc1ccc(Nc2ccnc(Nc3ccc(C)c(F)c3)n2)cc1O.Cl
0
5. CN(C)CCOc1ccc(-c2cc(-c3ccc(Cl)c(O)c3)c(-c3ccncc3)[nH]2)cc1.Cl.Cl
0

Consider the following items and state reported %Inh for each.
1. N#CC1(c2cccc(C(=O)Nc3cccc(Oc4ccc5nc(NC(=O)C6CC6)sc5n4)c3)c2)CC1
2. CNc1nccc(-c2ccc3c(N)n[nH]c3c2)n1
3. CSc1ccc(NC2=C(c3ccc(Cl)cc3)C(=O)NC2=O)cc1

18
0
3

Tell me its %Inh given COc1cccc(-c2nc(-c3ccccc3)[nH]c2-c2ccncc2)c1 as the entry.
0

----------
Test system: OSR1
Construct: gene OXSR1
Settings: concentration: 1 μM, replicates: in singlicate; n = 1
experimental-endpoint: %Inh (%)
Give bare numbers, in %.

Example results:
1. COc1ccc(C)c(Nc2ccnc(Nc3ccc(-c4cnc[nH]4)cc3)n2)c1.Cl [GW784041]
0
2. Cc1nn2c(=O)cc(N3CCO[C@H](C)C3)nc2n1Cc1cccc(Cl)c1Cl [GSK2373693]
83
3. Fc1cc(Cl)ccc1Nc1ccnc2cc(-c3ccc(CN4CCSCC4)o3)ccc12 [GW560106]
0

Please state %Inh for every compound in the list that follows.
1. Cc1ccc(C)c(NC(=O)Nc2ccc(C)c(-c3ccc(C(=O)Nc4ccncc4)cc3)c2)c1 [GSK1398473]
2. CC(C)c1nc(-c2ccc(F)c(NS(=O)(=O)c3c(F)cccc3F)c2)c(-c2ccnc(Nc3ccc(N4CCOCC4)nc3)n2)s1 [GSK1804250]
3. COc1ccc(C2=C(Nc3cccc(O)c3)C(=O)NC2=O)cc1 [SB-390766]
4. COC(=O)Nc1nc2cc(Oc3ccc(NC(=O)Nc4cccc(SC)c4)cc3)ccc2[nH]1.Cl [GW697999]
5. Cn1cc(-c2ccc3c(c2)CCN3C(=O)Cc2cc(F)cc(F)c2F)c2c(N)ncnc21 [GSK2634140]

1. 2
2. 7
3. 4
4. 15
5. 14

----------
Test system: BRAF
Conditions: concentration: 1 μM, replicates: in singlicate; n = 1
For each record, write down the corresponding %Inh.
Give bare numbers, in %.

Worked set:
1) CC(C)NCC(Cc1ccccc1)NC(=O)c1cc(Br)c(-c2ccnc3[nH]ccc23)s1.Cl.Cl (stereo not shown) [GSK1383281]
0
2) COc1cccc(-c2nc(-c3ccccc3)[nH]c2-c2ccncc2)c1 [SB-610250]
74

// for each compound below, give its %Inh
1. Cn1cc(-c2cnc(N)c3c(-c4ccc5c(c4)CCN5C(=O)Cc4ccccc4)csc23)cn1 [GSK2593074]
2. COc1cccc(C2=C(Nc3cccc(O)c3)C(=O)NC2=O)c1 [SB-390771]

0
0

----------
System: CDC2L5
Construct: gene CDK13
Conditions: concentration: 1 μM, replicates: in singlicate; n = 1
experimental-endpoint: %Inh (%)
Answers are plain numbers, in %.

The following molecules have reported results that may help.
1) Cc1ccc(O)cc1Nc1ccnc2ccc(C(C)(C)C)cc12
36
2) COc1cc(Nc2nccc(N3CCC(NC(=O)Nc4ccc5c(c4)OCO5)C3)n2)cc(OC)c1OC (stereo not drawn)
0
3) CC(=O)Nc1cn2nc(Oc3cccc(NC(=O)c4cccc(C(F)(F)F)c4)c3)ccc2n1
0
4) Cc1ccc(O)cc1Nc1ccnc2cc(-c3ccc(CN4CCCCC4)o3)ccc12
0
5) CCOc1nccc(-c2c(-c3ccc(F)cc3)ncn2C2CCNCC2)n1
34

Hi, could you look up %Inh for each item in my list?
1. CNc1nccc(-c2ccc3c(N)n[nH]c3c2)n1
2. N#CC1(c2cccc(C(=O)Nc3cccc(Oc4ccc5nc(NC(=O)C6CC6)sc5n4)c3)c2)CC1
3. Cl.N#CCc1ccc(Nc2nccc(Nc3ccc(Oc4ccccc4)cc3)n2)cc1
4. Fc1cc(Cl)ccc1Nc1ccnc2cc(-c3ccc(CN4CCOCC4)o3)ccc12

0
6
0
0

Values from paper PMC5540273
